assayMetric: melting point

The molecule listed as CC(=O)OCCC1CCc2c(C3=C(c4cn(C)c5ccccc45)C(=O)OC3=O)c3ccccc3n2C1 (centres undefined) shows melting point equal to 182 to 184 °C

Reported melting point of COc1cc(C(C)=O)ccc1OCCCN1C2CCC1CC(c1n[nH]c3ccccc13)C2 (centres undefined) : 173 to 175 °C

For record N#Cc1cnn2c1N(C(=O)CN1CCN(C(=O)Nc3ccccc3)CC1)CC=C2c1cccc(C(F)(F)F)c1 the listed melting point is 184 to 187 °C

Entry under test: COc1cccc(C2=C(C#N)C(c3ccccc3OC)c3c[nH]nc3N2)c1 (centres undefined) . Its melting point was 192 °C

Query COc1cc(Cl)c(C(=O)c2ccc([N+](=O)[O-])cc2)c(Cl)c1 yields melting point of 147 to 150 °C

Looking up N#Cc1c(Cl)c[nH]c1-c1ccc(Cl)cc1 , I found its melting point recorded as 251 to 254 °C

Recorded result, COC(=O)c1cccc(C(=O)c2[nH]c3cc(Cl)ccc3c2NC(C)=O)c1 , melting point: 190 to 193 °C

Quick note, melting point for N#CC(C#N)=C1C=C(C=Cc2ccc(N)cc2)OC(C=Cc2ccc(N)cc2)=C1 landed at 249 °C

Kindly note the recorded melting point for COC(=O)CCc1nc(C=O)ccc1OCCCC/C=C/c1ccc(OC)cc1 , which is 66 to 69 °C

Entry COCc1cc(C2=NOC(c3cc(Cl)cc(Cl)c3)(C(F)(F)F)C2)ccc1C(=O)NC(=N)OC (centres undefined) , melting point reported as 132 to 134 °C

For reference, reported melting point for O=C1N(Cc2csc(-c3ccc(C(F)(F)F)cc3)n2)c2ccccc2C12COc1cc3c(cc12)OCO3 (centres undefined) stands at 151 to 153 °C

The value of melting point measured for the molecule NC(=O)c1cc2c(cc1OCC1CCCCC1)OCCC[C@@H]2N turned out to be 145 to 146 °C

Data point: Fc1ccc2[nH]c3c(c2c1)Cc1ccccc1-3 ; melting point = 225 to 227 °C

Per the record, O=C(O)C(Cc1cc(Oc2c(Cl)cc(C(F)(F)F)cc2Cl)ccc1SC(F)(F)F)C(=O)O has melting point of 250 °C

The reported value for N#CCc1cc(=O)c(OCc2ccccc2)cn1Cc1ccccc1 in terms of melting point is 175 to 180 °C

Consider O=C(Nc1ccccn1)C(CC1CCCC1)c1ccc(-c2cccc3ccccc23)cc1 (centres undefined) . Its measured melting point is 73 to 77 °C

What the record says about COC(=O)C1CCCN(C(=O)OCc2ccccc2)N1C(=O)C(Br)CBr (centres undefined) : melting point is 132 to 134 °C

Kindly note the recorded melting point for N#CSc1c(-c2ncon2)nn(-c2c(Cl)cc(C(F)(F)F)cc2Cl)c1N , which is 195 to 198 °C

Entry CCCCC(CC)COC(=O)c1cc(OC)c(O)c(OC)c1 (centres undefined) — recorded melting point = 35 to 36 °C

----------
assayMetric: melting point

The compound listed as CCN(CC)C(=O)c1ccc(OCCCl)cc1 shows melting point equal to 80 to 81 °C

Reported melting point of CC[C@@H](C(C)C)[C@H](O)[C@H](O)[C@@H](C)[C@H]1CC[C@H]2[C@@H]3CCC4=CC(=O)CC[C@]4(C)[C@H]3CC[C@]12C : 192 to 194 °C

For NC(=O)N(O)CCNC(=O)c1cccc(C(=O)c2ccccc2)c1 the compound record lists melting point as 168 to 170 °C

Notebook: Cc1nnc2ccc(-c3cccc(NC(=O)C4CCC4)c3)nn12 , melting point read as 242 to 245 °C

Record summary for O=C(NCc1ccccc1)C1Cc2cc(Br)cc3[nH]c(=O)c(=O)n1c23 (stereo not given) : reported melting point = 152 to 153 °C

Value of measured melting point for the entry CNC(=O)C[C@@H](c1ccccc1)c1c[nH]c2cccc(OC)c12 : 178 to 181 °C

Lab note: COc1ccc(NC(=O)c2ccc(OC)c(C34CC5CC(CC(C5)C3)C4)c2)c(N)c1 gave melting point of 211 to 213 °C

Briefly, melting point measured for Cc1ccc(N)c(C(=S)NCC2CC2)c1 : 124 °C

So, COc1ccc2c(=O)c(NC(=O)C(=O)O)coc2c1 ? Its melting point was 236 to 238 °C

Per the record, O=c1oc2cccc(O)c2c2ccc([N+](=O)[O-])cc12 has melting point of > 260 °C

----------
Field: melting point. Provide a value for each of the compounds that follow.

Sample Cc1ncccc1C#N ; melting point observed: 55 °C

Given item CNS(=O)(=O)N(C)C(=O)CCCl , the value recorded as its melting point is 96 °C

For record Clc1ccc2c(c1)C(c1ccccc1)=NCc1nccn1-2 the listed melting point is 146 to 148 °C

Sample CCN1C(=O)C(C)(C)C(=O)N(C)c2cc(CN(CCn3ccc4oc(C)cc4c3=O)Cc3nc4ccccc4n3C)ccc21 ; melting point observed: 127 to 133 °C

Looking up CCC(=C(c1ccccc1)c1ccc(C=CC(=O)N(CC)CC)cc1)c1ccccc1 , I see its melting point listed as 138 to 140 °C

----------
assayMetric: melting point

# melting point of CCC1(C)C(=O)N=C(SCc2ccccc2N(C)C)N1C(C)=O (centres undefined) = 83 to 85 °C

molecule CN1C(=O)C2(COc3cc4c(cc32)OCCO4)c2c(NC(=O)c3ccccc3C(F)(F)F)cccc21 (centres undefined) , melting point observed: 241 to 243 °C

Lookup result for COC(=O)c1ccccc1OCc1ccc(COc2ccccc2C(=O)OC)cc1 ; measured melting point: 115 to 120 °C

The value of melting point measured for the molecule CC(=O)OC1CSC(Oc2ccc(-c3cncc(C)c3)nc2)C(OC(C)=O)C1OC(C)=O (centres undefined) turned out to be 189 to 190 °C

get_value(item= CCc1noc(C)c1C(C)=NNc1ccccc1 , readout=melting point) returns 72 to 75 °C

Entry CCCc1cc(CC(=O)O)ccc1OCc1ccc2ccccc2n1 ; melting point = 135 °C

Reported melting point ( Oc1ccc(-c2nc(Br)c[nH]2)cc1Cl ) = 225 to 227 °C

CCS(=O)(=O)c1cn(C)cc(-c2cccc(C(F)(F)F)c2)c1=O yielded melting point of 196 to 198 °C

melting point in this record for CCOC(=O)C1(c2ccc(OCc3ccccc3)cc2)CC2=C(C1)C(=O)C(OC)=C(OC)C2=O : 94 to 97 °C

----------
Assign melting point to each entry below.

Entry CCCCc1nc2c(N)nc3ccccc3c2n1CCCCNS(=O)(=O)c1cccs1 — recorded melting point = 138 to 142 °C

Short answer for Cc1ccc(S(=O)(=O)NCC(=O)NCc2ccc(C(c3cc(F)ccc3F)S(=O)(=O)c3ccc(Cl)cc3)nc2)cc1 (stereo not given) : melting point was 217 to 218 °C

The measured melting point associated with Cc1ccc(Nc2nnc(-c3cccc(OCc4ccccc4)c3)s2)cc1Cl reads 211 to 212 °C

Note to self: melting point recorded for COc1cc(C(=O)c2ncc3c(OC)cccn23)ccc1N was 229 °C

Noted for OCCOCC(O)c1ccc2ccccc2c1 (stereo not given) : its melting point reads 105 to 106 °C

----------
Assignment: determine reported melting point for the given compounds.

// melting point lookup, compound = COc1ccc([N+](=O)[O-])c(C=C2C(=O)NC(=O)N2C)c1 , result: 257 to 260 °C

Reported melting point of COc1ccc(C(Cc2cnccn2)c2ccccc2)cc1OC1CCCC1 (stereo not given) : 71.5 to 72 °C

melting point reading for COc1cn(-c2cccc3c2OC(F)(F)O3)nc(-c2ccnn2-c2ccccc2)c1=O : 181 to 183 °C

// field: melting point; key: Cc1cc(Oc2cccc(C(F)(F)F)c2)nn1C(=O)Nc1ccc(Cl)cc1Cl ; value = 113 to 114 °C

Entry CCOCC(=O)Nc1nc(-c2ccco2)c(C(=O)C2CCOCC2)s1 — recorded melting point = 121 to 126 °C

----------
assayMetric: melting point

Recorded melting point (compound O=C(CCl)Nc1ccc2c(c1NC(=O)C1CCCCC1)C(=O)c1ccccc1C2=O ): 216 to 217 °C

The compound listed as CC(C)n1c(=O)ccc2cnc(S(C)=O)nc21 (stereo not given) shows melting point equal to 132 to 133 °C

Per the records, this compound ( CC(C)C(N)CN1CCC(Nc2nc3ccccc3n2Cc2ccc3ccccc3n2)CC1 (stereo not given) ) has melting point equal to 135 °C

Entry COc1ccc(C2Sc3cccc4cccc(c34)N(CCN(C)C)C(=O)C2O)cc1 (stereo not given) , melting point reported as 121 to 122 °C

melting point reported for this compound O=C1N[C@@H](C(=O)O)CCCCCC[C@@H]1CS (relative stereo) : 180 to 185 °C

// melting point lookup, compound = CCCCCCCCCCc1nc(N(C)C)nc(OC)c1O , result: 59 to 60 °C

// field: melting point; key: C[C@@H]1NC(=O)C[C@@]1(O)C1CC1 ; value = 133 to 140 °C

Input Cc1ccc(S(=O)(=O)Oc2ccc(NC(=O)NCCCl)cc2)cc1 . Output melting point: 149 to 150 °C

Record O=C(O)COc1ccc2cc(CNC(=O)c3cc(-c4ccc(Cl)cc4)oc3C(F)(F)F)ccc2c1 , field melting point: 194 to 196 °C

The compound listed as COc1ccc(COC(=O)N[C@@H](Cc2ccccc2)C(=O)O)cc1 has a reported melting point of 87 to 88 °C
